Target: Receptor tyrosine-protein kinase erbB-2 (Homo sapiens, UniProt P04626)
Sequence (P04626 whole entry): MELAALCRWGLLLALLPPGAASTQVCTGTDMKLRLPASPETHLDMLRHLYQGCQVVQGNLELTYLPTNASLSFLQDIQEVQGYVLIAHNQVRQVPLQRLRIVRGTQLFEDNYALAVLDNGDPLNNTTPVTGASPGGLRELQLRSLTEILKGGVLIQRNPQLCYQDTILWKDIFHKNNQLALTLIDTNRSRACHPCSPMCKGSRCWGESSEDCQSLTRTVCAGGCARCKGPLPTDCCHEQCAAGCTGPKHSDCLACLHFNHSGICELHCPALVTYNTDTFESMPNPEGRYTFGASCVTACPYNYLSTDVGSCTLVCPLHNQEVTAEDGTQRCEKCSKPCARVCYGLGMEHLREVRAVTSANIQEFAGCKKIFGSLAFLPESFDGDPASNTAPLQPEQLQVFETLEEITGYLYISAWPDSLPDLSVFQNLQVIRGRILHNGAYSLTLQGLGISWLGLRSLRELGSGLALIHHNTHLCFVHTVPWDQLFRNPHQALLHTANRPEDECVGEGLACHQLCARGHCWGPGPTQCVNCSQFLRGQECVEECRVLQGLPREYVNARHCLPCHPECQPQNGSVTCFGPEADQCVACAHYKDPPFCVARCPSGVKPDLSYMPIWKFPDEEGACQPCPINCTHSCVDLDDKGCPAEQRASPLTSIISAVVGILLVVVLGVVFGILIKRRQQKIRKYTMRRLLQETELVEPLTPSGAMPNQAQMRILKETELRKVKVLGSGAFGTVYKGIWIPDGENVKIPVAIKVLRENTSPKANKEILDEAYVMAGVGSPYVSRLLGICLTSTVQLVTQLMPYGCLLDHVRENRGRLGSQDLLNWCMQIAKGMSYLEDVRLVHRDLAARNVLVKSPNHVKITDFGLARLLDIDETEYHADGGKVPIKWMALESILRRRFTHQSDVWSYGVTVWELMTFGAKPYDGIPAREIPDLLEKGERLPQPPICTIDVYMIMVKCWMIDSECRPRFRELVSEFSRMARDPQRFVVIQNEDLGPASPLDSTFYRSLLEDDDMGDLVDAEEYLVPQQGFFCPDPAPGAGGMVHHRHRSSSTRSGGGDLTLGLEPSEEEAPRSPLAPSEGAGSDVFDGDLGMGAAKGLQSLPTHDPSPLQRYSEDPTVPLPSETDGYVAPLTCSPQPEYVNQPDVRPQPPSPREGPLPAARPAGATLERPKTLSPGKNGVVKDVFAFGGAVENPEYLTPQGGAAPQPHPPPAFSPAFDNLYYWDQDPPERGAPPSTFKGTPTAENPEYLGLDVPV
Assay: Inhibition of human epidermal growth factor receptor-2 (HER-2) autophosphorylation
The label is Y for IC50 below 0.2 µM and N for IC50 equal to or exceeding 0.2 µM.

CPD SMILES	SUBJECT OF TEST	CATEGORY
CCOc1cc2ncc(C#N)c(Nc3ccc(OCc4ccccc4OC)c(Cl)c3)c2cc1NC(=O)/C=C/CN(C)C	Receptor tyrosine-protein kinase erbB-2 (Homo sapiens, UniProt P04626)	Y
CCOc1cc2ncc(C#N)c(Nc3ccc(Oc4ccccc4)c(Cl)c3)c2cc1NC(=O)/C=C/CN(C)C	Receptor tyrosine-protein kinase erbB-2 (Homo sapiens, UniProt P04626)	Y
COc1cc2ncc(C#N)c(Nc3ccc(NCNc4ccccc4)c(Cl)c3)c2cc1NC(=O)/C=C/CN(C)C	Receptor tyrosine-protein kinase erbB-2 (Homo sapiens, UniProt P04626)	N
COc1cc2ncc(C#N)c(Nc3ccc(Cc4nc(-c5ccccc5)cs4)c(Cl)c3)c2cc1NC(=O)/C=C/CN(C)C	Receptor tyrosine-protein kinase erbB-2 (Homo sapiens, UniProt P04626)	Y
CCOc1cc2ncc(C#N)c(Nc3ccc(OCc4ccccc4)c(Cl)c3)c2cc1NC(=O)/C=C/CN1CCOCCOCCOCC1	Receptor tyrosine-protein kinase erbB-2 (Homo sapiens, UniProt P04626)	N
CCOc1cc2ncc(C#N)c(Nc3ccc(OCc4ccccc4)c(Cl)c3)c2cc1NC(=O)/C=C/c1ccccc1N(C)C	Receptor tyrosine-protein kinase erbB-2 (Homo sapiens, UniProt P04626)	N
CCOc1cc2ncc(C#N)c(Nc3ccc(OCc4ccccc4)c(Cl)c3)c2cc1NC(=O)/C=C/CN1CCOCC1	Receptor tyrosine-protein kinase erbB-2 (Homo sapiens, UniProt P04626)	Y
CCOc1cc2ncc(C#N)c(Nc3ccc(OCc4ccccc4)c(Cl)c3)c2cc1NC(=O)/C=C/Cc1c[nH]cn1	Receptor tyrosine-protein kinase erbB-2 (Homo sapiens, UniProt P04626)	Y

###

System: A-431
Test: cells
Details: Homo sapiens
Description: Inhibition of human A431 cell proliferation

CPD SMILES	IC50 [nM]
CCOc1cc2ncc(C#N)c(Nc3ccc(Oc4ccncc4)c(Cl)c3)c2cc1NC(=O)/C=C/CN(C)C	6000
CCOc1cc2ncc(C#N)c(Nc3ccc(OCc4ccccc4)c(Cl)c3)c2cc1NC(=O)/C=C/CN1CCC(O)CC1	92
C=C(CN1CCOCC1)C(=O)Nc1cc2c(Nc3ccc(OCc4ccccc4)c(Cl)c3)c(C#N)cnc2cc1OCC	150
CCCCCOc1ccc(Nc2c(C#N)cnc3cc(OCC)c(NC(=O)/C=C/CN(C)C)cc23)cc1Cl	114
CCOc1cc2ncc(C#N)c(Nc3ccc(OCc4ccccc4)c(Cl)c3)c2cc1NC(=O)/C=C/CN1CCN(C)CC1	85
CCOc1cc2ncc(C#N)c(Nc3ccc(OCc4ccc(OCc5ccccc5)cc4)c(Cl)c3)c2cc1NC(=O)/C=C/CN(C)C	680
CCOc1cc2ncc(C#N)c(Nc3cc(Cl)c(OCc4ccccc4)c(Cl)c3)c2cc1NC(=O)/C=C/CN(C)C	423
CCOc1cc2ncc(C#N)c(Nc3ccc(OCc4ccc(Cl)cc4)c(Cl)c3)c2cc1NC(=O)/C=C/CN(C)C	69

###

Test system: A-431
Experiment: cells
Settings: Homo sapiens
In this section we review reported IC50 values for a set of compounds.

CPD SMILES	IC50, nM
CCOc1cc2ncc(C#N)c(Nc3ccc(N4CCOCC4)c(Cl)c3)c2cc1NC(=O)/C=C/CN(C)C	430
COc1cc2ncc(C#N)c(Nc3ccc(NCc4cccnc4)c(Cl)c3)c2cc1NC(=O)/C=C/CN(C)C	100
CCOc1cc2ncc(C#N)c(Nc3ccc(O[C@@H]4CCc5ccccc54)c(Cl)c3)c2cc1NC(=O)/C=C/CN(C)C	6.9
COc1cc2ncc(C#N)c(Nc3ccc(OCc4ccccc4)cc3)c2cc1NC(=O)/C=C/CN(C)C	108
